Test system: P. aeruginosa ATCC27853
assay_overview: microbe, parasite or virus in culture
test_parameters: Pseudomonas aeruginosa, ATCC27853, 18 h, read-out: Minimal inhibitory concentration
Each entry below lists one item and its recorded MIC value.

# smiles_repr, MIC, µM
rows = [
    ("C[C@@H](O)[C@H]1C(=O)N2C(C(=O)O)=C(S[C@@H]3CN[C@H](C(=O)N(C)C)C3)[C@H](C)[C@H]12", 2),
    ("CC(C)(O/N=C(\\C(=O)N[C@@H]1C(=O)N2C(C(=O)[O-])=C(C[n+]3ccccc3)CS[C@H]12)c1csc(N)n1)C(=O)O", 2),
    ("CN[C@H](CC(C)C)C(=O)N[C@H]1C(=O)N[C@@H](CC(N)=O)C(=O)N[C@H]2C(=O)N[C@H]3C(=O)N[C@H](C(=O)N[C@H](C(=O)O)c4cc(O)cc(O)c4-c4cc3ccc4O)[C@H](O)c3ccc(c(Cl)c3)Oc3cc2cc(c3O[C@@H]2O[C@H](CO)[C@@H](O)[C@H](O)[C@H]2O[C@H]2C[C@](C)(N)[C@H](O)[C@H](C)O2)Oc2ccc(cc2Cl)[C@H]1O", 256),
    ("CO/N=C(\\C(=O)N[C@@H]1C(=O)N2C(C(=O)O)=C(CSc3nc(=O)c(=O)[nH]n3C)CS[C@H]12)c1csc(N)n1", 8),
]

* * *

Each entry below lists one item and its recorded MIC value.
System: P. aeruginosa 4007
assay_overview: microbe, parasite or virus in culture
test_parameters: Pseudomonas aeruginosa, 4007, 18 h, read-out: Minimal inhibitory concentration
readout: MIC (µM)

# smiles_repr, tested_on, readout, units_of_measure, measured_value
records = [
    ("CC(C)(O/N=C(\\C(=O)N[C@@H]1C(=O)N2C(C(=O)[O-])=C(C[n+]3ccccc3)CS[C@H]12)c1csc(N)n1)C(=O)O", "P. aeruginosa 4007", "MIC", "µM", 16),
    ("CN[C@H](CC(C)C)C(=O)N[C@H]1C(=O)N[C@@H](CC(N)=O)C(=O)N[C@H]2C(=O)N[C@H]3C(=O)N[C@H](C(=O)N[C@H](C(=O)O)c4cc(O)cc(O)c4-c4cc3ccc4O)[C@H](O)c3ccc(c(Cl)c3)Oc3cc2cc(c3O[C@@H]2O[C@H](CO)[C@@H](O)[C@H](O)[C@H]2O[C@H]2C[C@](C)(N)[C@H](O)[C@H](C)O2)Oc2ccc(cc2Cl)[C@H]1O", "P. aeruginosa 4007", "MIC", "µM", 512),
    ("CO/N=C(\\C(=O)N[C@@H]1C(=O)N2C(C(=O)O)=C(CSc3nc(=O)c(=O)[nH]n3C)CS[C@H]12)c1csc(N)n1", "P. aeruginosa 4007", "MIC", "µM", 16),
    ("C[C@@H](O)[C@H]1C(=O)N2C(C(=O)O)=C(S[C@@H]3CN[C@H](C(=O)N(C)C)C3)[C@H](C)[C@H]12", "P. aeruginosa 4007", "MIC", "µM", 4),
]
